SYSTEM_NAME: full-length recombinant rat vitamin D receptor (VDR) (Rattus norvegicus)
Sequence (P13053 whole entry): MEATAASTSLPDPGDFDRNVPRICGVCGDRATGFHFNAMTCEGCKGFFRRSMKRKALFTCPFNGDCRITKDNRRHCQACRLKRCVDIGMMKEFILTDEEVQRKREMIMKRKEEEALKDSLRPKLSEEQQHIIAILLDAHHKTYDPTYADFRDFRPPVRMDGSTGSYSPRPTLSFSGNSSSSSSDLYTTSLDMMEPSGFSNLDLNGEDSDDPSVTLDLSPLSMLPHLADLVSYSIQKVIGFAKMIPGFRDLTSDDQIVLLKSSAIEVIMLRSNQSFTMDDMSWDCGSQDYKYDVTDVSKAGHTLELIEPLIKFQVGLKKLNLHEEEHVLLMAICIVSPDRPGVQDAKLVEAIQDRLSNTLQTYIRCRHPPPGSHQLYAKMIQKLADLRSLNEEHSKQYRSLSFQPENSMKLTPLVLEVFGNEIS
ASSAY_TEXT: competitive radioligand displacement
METRIC_NAME: Ki (nM)
Hi! Could you send only the number? It should be in nM, unit omitted.

Here's what some known entries look like.
| SMILES_REPR | Ki [nM] |
| --- | --- |
| C=C1[C@H](O)CC(=C/C=C2\CCC[C@]3(C)[C@@H]([C@@H](C)/C=C/C[C@@H](C)O)CC[C@@H]23)C[C@H]1O | 0.08 |
| C=C1[C@H](O)CC(=C/C=C2\CCC[C@]3(C)[C@@H]([C@H](C)/C=C/CC(C)(C)O)CC[C@@H]23)C[C@H]1O | 0.06 |
| C=C1[C@H](O)CC(=C/C=C2\CCC[C@]3(C)[C@@H]([C@@H](C)/C=C/C[C@H](C)O)CC[C@@H]23)C[C@H]1O | 0.2 |
| C[C@H](/C=C/[C@H](C)C(C)(C)O)[C@H]1CC[C@H]2/C(=C/C=C3C[C@@H](O)C[C@H](O)C3)CCC[C@]12C | 0.1 |
| C=C1[C@H](O)CC(=C/C=C2\CCC[C@]3(C)[C@@H]([C@H](C)/C=C/C[C@@H](C)O)CC[C@@H]23)C[C@H]1O | 0.09 |

// below: Ki requested for another compound
Query: Look up Ki for this compound: "C=C1[C@H](O)CC(=C/C=C2\CCC[C@]3(C)[C@@H]([C@H](C)/C=C/C[C@H](C)O)CC[C@@H]23)C[C@H]1O"
Reply: 0.3

Numbers sourced from paper PMC4601567.
